system: human newborn and adult leukocytes; test: Whole blood and MoDC assays, overall potency as summarised in the discussion; format: cell-based; settings: Leukocyte, Tested in both whole blood and MoDC assays
MEASUREMENT_TYPE: EC50 (µM)
Answers are plain numbers, in µM.

[in] Sample CCOCc1nc2c(N)nc3ccccc3c2n1CC(C)(C)O [R848, resiquimod, reference compound] — what was its EC50?
[out] 1
